Biological target: NHERF4_1, Q86UT5-2
Sequence (Q86UT5 other isoform, or with tags, fused parts or gaps): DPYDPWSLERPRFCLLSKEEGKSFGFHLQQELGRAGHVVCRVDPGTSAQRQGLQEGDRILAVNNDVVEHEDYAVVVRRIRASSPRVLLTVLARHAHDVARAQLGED
Test: holdup assay
Design: key: below the threshold = too weak to quantify, mostly under pKd 3.1 to 4
Settings: plain residues with an end cap or a label only (N-terminal biotin on a linker: ado-ado)
Observable: pKd

>>> print(df.to_string())
                         binder  observable             reported
0  MQHQRTHTRV [ZSCAN30, Q86W11]         pKd  below the threshold
1  IDESKKEWLI [CNTNAP2, Q9UHC6]         pKd  below the threshold
2   TGLWKHETTV [ADGRA3, Q8IWK6]         pKd  below the threshold
